Experiment: Novel Modifiers of Survival Motor Neuron (SMN) Protein: Gene Identification via Genome-wide siRNA Screen;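 also: luminescence tracks full-length SMN protein made from the SMN2 reporter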
Conditions: HEK293T SMN2-luciferase reporter, siRNA knockdown, 72 h; actives lie on both sides
Hit rate of the full screen: of about 31,000 sequences, about 1,400 (4.5%) were called active.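 The calls were made as follows: active = median seed-adjusted z-score above 1 or below -1; inactive = the rest.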 The sample as a whole holds a higher share of actives than the screen did.
In this exercise, the only acceptable responses are active, inactive

[in] Outcome? CGAUGAACAUGUUAGACAUTT against AZIN1
[out] active

[in] // param item: CUGUUGGUAUUGUCCACAATT against MAL ; yields the recorded call
[out] inactive

[in] Tell me the recorded outcome of this test for CCAUAUGAGUCCUAUGAGATT against SMURF1 .
[out] active

[in] Test call, this sequence: AAGUGACUCUAGUCGUUUATT against REM2
[out] inactive

---

Answer each item with its documented median seed-adjusted z-score.
Experiment: Novel Modifiers of Survival Motor Neuron (SMN) Protein: Gene Identification via Genome-wide siRNA Screen;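 also: luminescence tracks full-length SMN protein made from the SMN2 reporter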
Conditions: HEK293T SMN2-luciferase reporter, siRNA knockdown, 72 h; actives lie on both sides
The campaign covered roughly 31,000 sequences. About 1,400 (4.5%) were called active. The sample as a whole holds a higher share of actives than the screen did.
# print the numeric value only

[in] Look up median seed-adjusted z-score: ACUCCUACAUGUACAUUCUTT against KCNE3
[out] -1.33

[in] Entry under review: CAACCACCAUCUGACCUUUTT against MMP15 . Reported median seed-adjusted z-score?
[out] -0.0489

[in] Sample GCAAAGGCACUGAAUCGAATT against MAP4K5 — what was its median seed-adjusted z-score?
[out] -0.309

[in] Quick one: median seed-adjusted z-score of GCAUGAACGCGGUCAUGAUTT against RAB40C ?
[out] -0.161

[in] Which median seed-adjusted z-score value is on record for ACUCCAACCGUACCCUUUATT against PPT2 ?
[out] 0.0334

[in] # query: median seed-adjusted z-score of entry CAACUGUUCCAACAACAAUTT against HAVCR1
[out] -0.306

[in] # input sequence: GUAUAGGGCCUGUAAGUUUTT against LANCL1 ; wanted: its median seed-adjusted z-score
[out] 0

[in] What value of median seed-adjusted z-score has been recorded for this entry: CCAAUCUGGUGACGAUUUATT against SP110
[out] -0.788

[in] Which median seed-adjusted z-score value belongs to GGCUCUCAGAUUGUUGACATT against GABARAPL2 ?
[out] 0.528

[in] For GGAUGAGAAGAGACGUAGATT against DNMT1 , what is its reported median seed-adjusted z-score?
[out] 0.185

[in] Which median seed-adjusted z-score reading was recorded for the sequence CCUUCACUAUUGCCCGCAATT against ABCD1 ?
[out] 0

[in] What value of median seed-adjusted z-score has been recorded for this entry: GCUGGAAUCUAACAAUAGATT against ROCK2
[out] -0.149

[in] Quick one: median seed-adjusted z-score of UCCACUGCCCAAUAAAUAUTT against PYDC1 ?
[out] -1.44

[in] Please look up its median seed-adjusted z-score: GGACCUACGUUGCAGUUCATT against SUZ12
[out] -1.65

[in] // median seed-adjusted z-score lookup, key: CAUCUGAUCCGGGAAAUCATT against GALNT14
[out] 0

[in] Requested field: median seed-adjusted z-score. Item: GUCUUAGAAUGAGUAGCAATT against KCNMA1
[out] 0
